Data origin: patent EP3150203B1

test: Stability in acidic condition (0.1 N HCl, 37°C); type: physicochemical; details: 24 h
Assay endpoint: Concentration change (%) (stability) in acidic condition

Here are 2 compounds together with their reported answers.
| Structure smiles | Data value |
| --- | --- |
| CCN(CC)C(=O)CC(C)(C(=O)/C=C/c1ccc(OC)c(OC)c1)C(=O)/C=C/c1ccc(OC)c(OC)c1 | 79 |
| CCN(CC)C(=O)CC(C(=O)/C=C/c1ccc(OC)c(OC)c1)C(=O)/C=C/c1ccc(OC)c(OC)c1 | 4 |

P = COc1ccc(/C=C/C(=O)C(CC(=O)N(C)C)=C(O)/C=C/c2ccc(OC)c(OC)c2)cc1OC
Q = COc1ccc(/C=C/C(=O)C(C)(CC(=O)N(C)C)C(=O)/C=C/c2ccc(OC)c(OC)c2)cc1OC
## Input Between P and Q , which one has the lower reported Concentration change (%) (stability) in acidic condition value? Answer by quoting the chosen item's label.
## Output P

###

test: Stability in rat plasma (37°C); type: in vitro ADME; conditions: 48 h
Assay endpoint: Concentration change (%) (stability) in rat plasma

| Structure smiles | Data value |
| --- | --- |
| CCN(CC)C(=O)CC(C(=O)/C=C/c1ccc(OC)c(OC)c1)C(=O)/C=C/c1ccc(OC)c(OC)c1 | 0 |

P = COc1ccc(/C=C/C(=O)C(CC(=O)N(C)C)=C(O)/C=C/c2ccc(OC)c(OC)c2)cc1OC
Q = CCN(CC)C(=O)CC(C)(C(=O)/C=C/c1ccc(OC)c(OC)c1)C(=O)/C=C/c1ccc(OC)c(OC)c1
R = COc1ccc(/C=C/C(=O)C(C)(CC(=O)N(C)C)C(=O)/C=C/c2ccc(OC)c(OC)c2)cc1OC
## Input Arrange these compounds by their Concentration change (%) (stability) in rat plasma, starting with the largest number. List labels; respect the requested ordering.
## Output R, Q, P
